# system name: HPEPT1 (Homo sapiens)
# Sequence (P46059 whole entry): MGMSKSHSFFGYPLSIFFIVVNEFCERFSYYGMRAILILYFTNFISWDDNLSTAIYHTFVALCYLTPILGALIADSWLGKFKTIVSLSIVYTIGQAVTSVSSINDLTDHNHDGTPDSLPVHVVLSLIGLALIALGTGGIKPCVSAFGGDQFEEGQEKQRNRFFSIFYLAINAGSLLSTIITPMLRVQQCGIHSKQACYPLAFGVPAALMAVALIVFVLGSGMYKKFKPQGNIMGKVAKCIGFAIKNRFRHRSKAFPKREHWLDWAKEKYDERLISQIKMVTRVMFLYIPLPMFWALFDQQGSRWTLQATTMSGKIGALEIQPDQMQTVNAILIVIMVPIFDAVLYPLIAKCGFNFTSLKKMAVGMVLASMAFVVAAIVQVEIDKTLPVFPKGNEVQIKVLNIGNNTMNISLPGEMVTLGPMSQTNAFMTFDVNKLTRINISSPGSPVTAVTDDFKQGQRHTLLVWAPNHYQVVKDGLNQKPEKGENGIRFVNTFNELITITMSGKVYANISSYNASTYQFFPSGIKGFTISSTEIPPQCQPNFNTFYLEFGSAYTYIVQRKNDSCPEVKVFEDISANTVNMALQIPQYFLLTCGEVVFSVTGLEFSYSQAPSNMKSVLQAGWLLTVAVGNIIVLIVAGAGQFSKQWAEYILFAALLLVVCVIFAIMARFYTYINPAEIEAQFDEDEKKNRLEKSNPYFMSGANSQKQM
# protocol summary: Inhibition of radiolabelled Gly-Sar uptake in DC5 cells overexpressing HPEPT1
# Assay type: cell-based
# Set-up: expressed in transfected cells; host or cells: HeLa cells overexpressing hPEPT1 (called 'HPEPT1 infected cells')
# condition label: inhibition of Gly-Sar uptake, DC5 cells overexpressing HPEPT1, 10 min, 37° C.; read-out: DC5 IC50
readout label: IC50 (µM)
Expressed in µM, but write only the number.

As a guide, the following entries are already answered.
- NC(CC(=O)O)C(=O)OCC1OC(n2cc(F)c(=O)[nH]c2=O)CC1O (stereo not shown): 8300
- N[C@@H](Cc1ccccc1)C(=O)OC[C@H]1O[C@@H](n2cc(F)c(=O)[nH]c2=O)C[C@@H]1O: 3700
- CC(C)C(N)C(=O)OC[C@H]1O[C@@H](n2cc(F)c(=O)[nH]c2=O)C[C@@H]1OC(=O)C(N)C(C)C (stereo partly shown): 1600
- CC(C)[C@H](N)C(=O)OC[C@H]1O[C@@H](n2ccc(N)nc2=O)C(F)(F)[C@@H]1OC(=O)[C@@H](N)C(C)C: 1720
- NC(Cc1ccccc1)C(=O)O[C@H]1C[C@H](n2cc(F)c(=O)[nH]c2=O)O[C@@H]1CO (stereo partly shown): 3480

Kindly review the next compound as well.
Given the compound CC(C)[C@H](N)C(=O)OCC(CO)OCn1cnc2c(=O)nc(N)[nH]c21 (stereo partly shown) , write its reported IC50.
5230

====

Recorded t1/2 Buffer pH 7.4 determines the label; the label ranges are lower band: < 60 min; central band: ≥ 60 min and < 200 min; upper band: ≥ 200 min

Study these solved cases before continuing.
- CC(C)[C@@H](N)C(=O)OC[C@H]1O[C@@H](n2ccc(N)nc2=O)C(F)(F)[C@@H]1OC(=O)[C@H](N)C(C)C: lower band
- CC[C@H](C)[C@H](N)C(=O)O[C@@H]1[C@@H](CO)O[C@@H](n2ccc(N)nc2=O)C1(F)F: central band
- Nc1ccn([C@@H]2O[C@H](COC(=O)[C@H](N)Cc3ccccc3)[C@@H](OC(=O)[C@H](N)Cc3ccccc3)C2(F)F)c(=O)n1: lower band
- CC(C)[C@@H](N)C(=O)OC[C@H]1O[C@@H](n2ccc(N)nc2=O)C(F)(F)[C@@H]1O: upper band
- CC(C)[C@H](N)C(=O)OC[C@H]1O[C@@H](n2ccc(N)nc2=O)C(F)(F)[C@@H]1OC(=O)[C@@H](N)C(C)C: lower band
- Nc1ccn([C@@H]2O[C@H](CO)[C@@H](OC(=O)[C@H](N)Cc3ccccc3)C2(F)F)c(=O)n1: lower band
- CC(C)[C@@H](N)C(=O)O[C@@H]1[C@@H](CO)O[C@@H](n2ccc(N)nc2=O)C1(F)F: central band
- CC(C)[C@H](N)C(=O)OC[C@H]1O[C@@H](n2ccc(N)nc2=O)C(F)(F)[C@@H]1O: upper band

Now let's try a different one.
Looking at CC[C@H](C)[C@H](N)C(=O)OC[C@H]1O[C@@H](n2ccc(N)nc2=O)C(F)(F)[C@@H]1O , which class would you pick?
upper band

====

# protocol summary: KB cell cytotoxicity
# condition label: human, KB cells
pIC50: −log10 of the molar value.
Reported pIC50 values follow for various compounds

* Nc1ncnc2c1ncn2[C@@H]1O[C@H](CO)[C@@H](O)[C@@H]1O [Ara A, Adenine 9-beta-D-arabinofuranoside, reference compound] | < 4.00

Kindly review the next compound as well.
Given the compound Nc1ccn(C[C@@H](CO)OCP(=O)(O)O)c(=O)n1 [Cidofovir, reference compound] , write its reported pIC50.
< 4.00
